target: hAR (Homo sapiens, UniProt P10275); experiment: Competitive binding of 3H-DHT to baculovirus/Sf9 generated hAR extracts; details: IC50, concentration at which one half of maximum binding of 1 nM 3H-DHT to hAR is inhibited; one hour at 4° C.; mean of multiple tests
Exercise: state measured pIC50 for each of the molecules provided.
Answers are plain numbers, as −log10 of the molar value.

| molecule | assaySystem | assayResult |
| --- | --- | --- |
| CC1(C)CN(Cc2ccccc2F)C(=O)C1Oc1ccc(C#N)c(C(F)(F)F)c1 (stereo not shown) [Example 15] | hAR (Homo sapiens, UniProt P10275) | 7.32 |

Items follow; give pIC50 for each.
1. CCCS(=O)(=O)N1CC(C)(C)C(Oc2ccc(C#N)c(C(F)(F)F)c2)C1=O (single isomer, unassigned; (+)) [Example 82]
2. CC(c1nnc(-c2ccc(O)cc2O)o1)N1CC(C)(C)C(Oc2ccc(C#N)c(C(F)(F)F)c2)C1=O (stereo not shown) [Example 132]
3. CC1(C)CN(Cc2ccc(O)cc2)C(=O)C1Oc1ccc(C#N)c(C(F)(F)F)c1 (single isomer, unassigned) [Example 9]
4. CC1(C)CN(Cc2ccccc2)C(=O)C1Oc1ccc(C#N)c(C(F)(F)F)c1 (stereo not shown) [Example 5]
5. COc1ccc(CN2CC(C)(C)C(Oc3ccc(C#N)c(C(F)(F)F)c3)C2=O)cc1 (stereo not shown) [Example 7]
6. CC1(C)CN(Cc2nnc(-c3ccccc3O)o2)C(=O)C1Oc1ccc(C#N)c(C(F)(F)F)c1 (stereo not shown) [Example 112]
7. CSc1ccc(CN2CC(C)(C)C(Oc3ccc(C#N)c(C(F)(F)F)c3)C2=O)cc1 (racemic) [Example 22]
8. CC(C)OC(=O)c1ccc(CN2CC(C)(C)C(Oc3ccc(C#N)c(C(F)(F)F)c3)C2=O)o1 (stereo not shown) [Example 27]

1. 7.33
2. 7.28
3. 7.74
4. 7.49
5. 6.53
6. 7.07
7. 7.40
8. 7.36

Recorded pIC50 for CC1(C)CN(S(=O)(=O)c2cccc(O)c2)C(=O)C1Oc1ccc(C#N)c(C(F)(F)F)c1 (stereo not shown) [Example 95] , please?
8.10

* * *

molecular target: androgen receptor (Homo sapiens); assay: AR Antagonist Cell Assay (MDA-MB453-MMTV clone 54-19, luciferase reporter); type: cell-based; conditions: inhibition of induction by DHT (final concentration at 100 μM), 17 hr; compound 0.32-1000 nM; mean of multiple tests
Exercise: state measured IC50 for each of the molecules provided.
Answers are plain numbers, in nM.

Here's what some known entries look like.
| molecule | assaySystem | unitLabel | assayResult |
| --- | --- | --- | --- |
| CC1(C)CN(Cc2cccc(C#N)c2)C(=O)C1Oc1ccc(C#N)c(C(F)(F)F)c1 (stereo not drawn) | androgen receptor (Homo sapiens) | nM | 50 |
| CC1(C)CN(Cc2nc3ccccc3s2)C(=O)C1Oc1ccc(C#N)c(C(F)(F)F)c1 (stereo not drawn) | androgen receptor (Homo sapiens) | nM | 50 |

# next molecule below
Recorded IC50 for CC1(C)CN(S(=O)(=O)c2ccccc2)C(=O)C1Oc1ccc(C#N)c(C(F)(F)F)c1 (stereo not drawn) , please?
49

* * *

Target: androgen receptor (Homo sapiens, UniProt P10275)
Sequence (P10275 1-920 Q868H): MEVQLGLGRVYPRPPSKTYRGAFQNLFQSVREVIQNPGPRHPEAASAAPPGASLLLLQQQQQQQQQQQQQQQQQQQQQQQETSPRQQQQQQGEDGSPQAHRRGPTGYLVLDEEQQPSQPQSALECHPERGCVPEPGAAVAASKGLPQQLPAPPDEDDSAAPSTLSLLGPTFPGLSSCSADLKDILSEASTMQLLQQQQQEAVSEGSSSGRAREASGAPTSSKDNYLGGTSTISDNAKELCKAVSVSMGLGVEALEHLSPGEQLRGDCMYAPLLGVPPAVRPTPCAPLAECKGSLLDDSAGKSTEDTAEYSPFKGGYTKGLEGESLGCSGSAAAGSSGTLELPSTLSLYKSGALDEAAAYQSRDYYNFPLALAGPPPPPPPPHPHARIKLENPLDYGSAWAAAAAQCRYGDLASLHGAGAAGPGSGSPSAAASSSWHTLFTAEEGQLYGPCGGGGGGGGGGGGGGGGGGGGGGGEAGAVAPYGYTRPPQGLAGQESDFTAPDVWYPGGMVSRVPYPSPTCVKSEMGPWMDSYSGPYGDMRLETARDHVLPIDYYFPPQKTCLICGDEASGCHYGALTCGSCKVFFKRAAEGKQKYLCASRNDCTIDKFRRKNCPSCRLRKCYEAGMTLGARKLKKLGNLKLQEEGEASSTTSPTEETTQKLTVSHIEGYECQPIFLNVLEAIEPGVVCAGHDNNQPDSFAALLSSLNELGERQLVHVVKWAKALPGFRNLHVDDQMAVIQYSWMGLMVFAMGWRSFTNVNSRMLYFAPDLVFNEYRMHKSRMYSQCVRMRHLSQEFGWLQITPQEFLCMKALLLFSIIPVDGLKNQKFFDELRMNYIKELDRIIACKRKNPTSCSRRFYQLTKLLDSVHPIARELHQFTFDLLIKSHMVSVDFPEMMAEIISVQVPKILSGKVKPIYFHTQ
Experiment: AR Antagonist Cell Assay (MDA-MB453-MMTV clone 54-19, luciferase reporter)
Format: cell-based
Settings: inhibition of induction by DHT (final concentration at 100 μM), 17 hr; compound 0.32-1000 nM; mean of multiple tests; read-out: IC50
measureName: pIC50
Give bare numbers, as −log10 of the molar value.

Here's what some known entries look like.
| compound | assaySystem | measureName | assayResult |
| --- | --- | --- | --- |
| CC1(C)CN(Cc2nc(-c3ccc([N+](=O)[O-])cc3)cs2)C(=O)C1Oc1ccc(C#N)c(C(F)(F)F)c1 (centres unmarked) [Example 65] | androgen receptor (Homo sapiens, UniProt P10275) | pIC50 | 6.64 |
| CC1(C)CN(Cc2nnc(-c3ccc(F)cc3)o2)C(=O)C1Oc1ccc(C#N)c(C(F)(F)F)c1 (centres unmarked) [Example 116] | androgen receptor (Homo sapiens, UniProt P10275) | pIC50 | 6.43 |
| CC1(C)CN(Cc2nnc(-c3cccc(F)c3)o2)C(=O)C1Oc1ccc(C#N)c(C(F)(F)F)c1 (centres unmarked) [Example 115] | androgen receptor (Homo sapiens, UniProt P10275) | pIC50 | 6.38 |
| Cc1csc(S(=O)(=O)N2CC(C)(C)C(Oc3ccc(C#N)c(C(F)(F)F)c3)C2=O)c1 (centres unmarked) [Example 86] | androgen receptor (Homo sapiens, UniProt P10275) | pIC50 | 6.98 |
| CC1(C)CN(Cc2nnc(-c3ccccc3O)o2)C(=O)C1Oc1ccc(C#N)c(C(F)(F)F)c1 (centres unmarked) [Example 112] | androgen receptor (Homo sapiens, UniProt P10275) | pIC50 | 6.70 |

Items follow; give pIC50 for each.
1. COc1ccc(-c2nnc(CN3CC(C)(C)C(Oc4ccc(C#N)c(C(F)(F)F)c4)C3=O)o2)cc1 (centres unmarked) [Example 119]
2. COC(=O)c1cccc(CN2CC(C)(C)C(Oc3ccc(C#N)c(C(F)(F)F)c3)C2=O)c1 (racemic) [Example 25]
3. COc1cc(OC2C(=O)N(C(C)c3ccccc3)CC2(C)C)ccc1C#N (centres unmarked) [Example 110]
4. CC1(C)CN(Cc2nnc(-c3cccc(O)c3)o2)C(=O)C1Oc1ccc(C#N)c(C(F)(F)F)c1 (centres unmarked) [Example 113]

[6.70, 6.97, 6.90, 6.19]

Items follow; give pIC50 for each.
1. CCCC(=O)N1CC(C)(C)C(Oc2ccc(C#N)c(C(F)(F)F)c2)C1=O (single isomer, unassigned; (+)) [Example 103]
2. Cc1ccsc1S(=O)(=O)N1CC(C)(C)C(Oc2ccc(C#N)c(C(F)(F)F)c2)C1=O (centres unmarked) [Example 87]

1: 6.90; 2: 6.30

Recorded pIC50 for CC(C)OC(=O)c1ccc(CN2CC(C)(C)C(Oc3ccc(C#N)c(C(F)(F)F)c3)C2=O)o1 (centres unmarked) [Example 27] , please?
6.43
